Reported inhibition is given for each of the following molecules.
# Assay Details: inhibitors of Sendai virus-induced IRF3 signaling, primary screen, TLR/RLR signaling modifier project, cell-based, Sendai virus stimulus, luciferase, 10K MLSCN set (AID 602276);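 also: firefly luciferase from ISG56 promoter only with Renilla not read in this screen; 0% = Sendai virus plus DMSO and 100% = medium plus DMSO without virus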
# Particulars: HEK293 RL24 IRF3 luciferase reporter, at 10 µM, stronger effect = higher value

| Record Smiles | inhibition, % |
| --- | --- |
| Cc1nc(N2CCC(C)CC2)c2c(C)c(C(=O)O)sc2n1 | 14 |
| CCCn1c(-c2ccc(F)cc2)cnc1SCC(=O)O | 16.2 |
| CC(=O)c1ccc(NS(=O)(=O)c2ccccc2)cc1 | -17.2 |
| Cc1ccc(-c2noc(CCC(=O)N3CCN(c4cccc(C(F)(F)F)c4)CC3)n2)cc1 | 9.01 |
| Cc1cc(C)n(-c2cc(N3CCOCC3)ncn2)n1 | 2.82 |

====

# Assay Details: inhibitors of TNFa-induced NFkB p65 translocation, primary screen, imaging, HUVEC, MLSMR starter and 10KST1 sets (AID 438);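 also: compound added about 3h40 before a 20 min TNFalpha stimulation; signal is the nuclear over cytoplasmic p65 intensity ratio per well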
# Particulars: HUVEC TNFa-induced p65 nuclear translocation; at 2 µM, stronger effect = higher value, 0% TNFa-plus-vehicle, 100% no-TNFa wells
Reported inhibition is given for each of the following compounds.

| Compound | inhibition [%] |
| --- | --- |
| CCc1ccc(NC(=O)CS(=O)CC(=O)NCC2OCCc3ccccc32)cc1 (stereo not given) | -4.5 |
| COc1ccc(C(=O)CCN2CCCCCC2)cc1 | -7.4 |
| O=S(=O)(c1cccs1)N1CCN(Cc2nc3ccccc3s2)CC1 | 3.3 |
| C=CCn1c(-c2ccc(OC)c(OC)c2)n[nH]c1=S | -3.9 |
| N#Cc1c(N)n(CCOC(=O)c2ccc(Cl)cc2)c2nc3ccccc3nc12 | 22.7 |
| S=c1[nH]nc(-c2ccco2)n1C1CCCCC1 | -2.9 |
| CCCn1c(C)cc(C(=O)COc2ncnc3sccc23)c1C | 2.9 |
| CC(C)OC(=O)CSc1nnc(-c2ccccn2)n1-c1ccccc1 | 1.6 |
| Cc1cc(Cl)c(S(=O)(=O)Nc2ccc3c(c2)OCCO3)cc1OCC(N)=O | 1.8 |
| Cc1cccc(-n2c(O)c(C=Nc3ccccc3N)c(=O)[nH]c2=O)c1 | 6 |

====

# Assay Details: inhibitors of mutant huntingtin aggregation, primary screen, imaging, exon1htt(103Q)mCFP cells, high-content imaging (AID 483);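 also: compound exposure lasted 3 days before fixation; percent of the per-plate median nuclei count of sample wells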
# Particulars: exon1htt(103Q)mCFP cell line, aggregate imaging, at 2 µM; measured here: cell count, toxicity
Reported nuclei count is given for each of the following molecules.
Quantity Name: nuclei count (%)

| Molecule | Quantity Name | Unit Annotation | Obs Value |
| --- | --- | --- | --- |
| Cc1ccsc1C(C(=O)NC1CCCCC1)N(C(=O)Cc1cccs1)C1CC1 (configuration not stated) | nuclei count | % | 86.8 |
| O=C(Nc1ccc2c(c1)nc1n2CCN(Cc2ccccc2)C1)c1cccs1 | nuclei count | % | 89.3 |
| COc1ccc(CCNc2oc(COc3ccc(F)cc3)nc2C#N)cc1 | nuclei count | % | 88.8 |
| Cc1ccc(C)c(C(=O)CC2(O)C(=O)Nc3ccccc32)c1 (configuration not stated) | nuclei count | % | 62.9 |
| O=C(CSc1nnc(-c2ccccc2)o1)N1CCN(c2ccccc2)CC1 | nuclei count | % | 88.7 |
| Cn1c(=O)c2c(nc(Br)n2CCSc2nnnn2-c2ccccc2)n(C)c1=O | nuclei count | % | 94.6 |
| O=C(c1ccccc1Oc1nnnn1-c1ccccc1)N1CCOCC1 | nuclei count | % | 107 |
| COCCCN1C(=O)C(=O)/C(=C(/O)c2ccc(OCC(C)C)cc2C)C1c1cccnc1 (configuration not stated) | nuclei count | % | 109 |
| CCOC(=O)N1CCN(CC(O)COc2ccccc2C(C)CC)CC1 (configuration not stated) | nuclei count | % | 100 |
| O=C(O)c1cccc(S(=O)(=O)N2CCOCC2)c1 | nuclei count | % | 95.2 |
| CCOC(=O)CNC(=O)CSc1nc(N)cc(N)n1 | nuclei count | % | 106 |
| Cc1nn(C(=O)c2cc3sccc3[nH]2)c(C)c1C | nuclei count | % | 95.1 |
| CCN(Cc1nc2ccccc2c(=O)[nH]1)Cc1cc(=O)oc2cc(C)c(C)cc12 | nuclei count | % | 107 |
| O=C(Nc1nnc(-c2ccc(Cl)cc2)o1)C1CCCCC1 | nuclei count | % | 96.8 |
| O=C(NCc1nc2ccccc2[nH]1)c1ccc(Cl)c(S(=O)(=O)N2CCCC2)c1 | nuclei count | % | 101 |
| c1ccc(-c2ccccc2OCCn2cncn2)cc1 | nuclei count | % | 112 |
| Nn1c(SCC(=O)NC2CCCCC2)nnc1C1CC1 | nuclei count | % | 95.6 |
| COc1ccc(N2CCN(CCCNS(=O)(=O)c3c(C)noc3/C=C/N(C)C)CC2)cc1 | nuclei count | % | 101 |
| CCc1ccc(CNCc2cccnc2)cc1 | nuclei count | % | 101 |
| COc1ccccc1-c1nnc(SCC(=O)NC2CCCCC2)o1 | nuclei count | % | 76 |
| Cc1nnc(N2C(=O)C(O)=C(C(=O)c3ccco3)C2c2ccc(F)cc2)s1 (configuration not stated) | nuclei count | % | 122 |
| COc1ccccc1C(=O)N1CCN=C1SCc1cccnc1 | nuclei count | % | 103 |
